target: UniProt:P51449
Sequence (P51449 269-508 limits assumed, species assumed): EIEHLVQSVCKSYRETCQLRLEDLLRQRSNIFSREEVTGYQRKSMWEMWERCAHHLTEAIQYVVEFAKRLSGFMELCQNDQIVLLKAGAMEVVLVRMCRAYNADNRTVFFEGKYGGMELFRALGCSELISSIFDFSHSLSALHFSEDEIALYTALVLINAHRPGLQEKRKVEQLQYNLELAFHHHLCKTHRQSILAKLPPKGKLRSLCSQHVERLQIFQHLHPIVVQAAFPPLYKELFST
readout: IC50
Please state the value followed by its unit.

molecule	result
C[C@H]1CCC(c2ccccc2)S(=O)(=O)N1Cc1ccc(C(=O)NCc2ccno2)cc1 (stereo partly shown)	985 nM

Lab note: each molecule below needs its IC50 filled in.
1. C[C@H]1CCC(c2ccccc2)S(=O)(=O)N1Cc1ccc(C(=O)Nc2ncnn2C)cc1 (single isomer, unassigned)
2. C[C@H]1CCC(c2ccccc2)S(=O)(=O)N1Cc1ccc(-c2cccc(S(C)(=O)=O)c2)cc1F (stereo partly shown)
3. Cc1cnc(COc2ccc(CN3[C@@H](C)CCC(c4ccccc4)S3(=O)=O)cc2)nc1 (stereo partly shown)
4. C[C@H]1CCC(c2ccccc2)S(=O)(=O)N1Cc1ccc(-c2ccc(C#N)cc2)cc1F (stereo partly shown)
5. C[C@H]1CCC(c2ccccc2)S(=O)(=O)N1Cc1ccc(C(=O)N(C)c2ncco2)cc1 (stereo partly shown)
6. C[C@H]1CCC(c2ccccc2)S(=O)(=O)N1Cc1ccc(OCCn2ccnc2)cc1 (stereo partly shown)
7. CC(Oc1ccc(CN2[C@@H](C)CCC(c3ccccc3)S2(=O)=O)cc1)c1cnn(C)c1 (single isomer, unassigned)
8. C[C@H]1CCC(c2ccccc2)S(=O)(=O)N1Cc1ccc(-c2cnn(C)c2)cc1F (stereo partly shown)

**Result**
["3280 nM", "212 nM", "1180 nM", "102 nM", "4840 nM", "316 nM", "693 nM", "727 nM"]

Batch lookup, IC50 per entry.
1. C[C@H]1CCC(c2ccccc2)S(=O)(=O)N1Cc1ccc(OCc2cccnc2)cc1 (single isomer, unassigned)
2. CC(Oc1ccc(CN2[C@@H](C)CCC(c3ccccc3)S2(=O)=O)cc1)c1ncccn1 (single isomer, unassigned)
3. CCS(=O)(=O)c1ccc(-c2ccc(CN3[C@@H](C)CCC(c4ccccc4)S3(=O)=O)c(F)c2)cc1 (stereo partly shown)
4. Cc1noc(C)c1C(=O)Nc1ccc(CN2[C@@H](C)CCC(c3ccccc3)S2(=O)=O)c(F)c1 (single isomer, unassigned)

**Result**
1. 106 nM
2. 1350 nM
3. 69 nM
4. 27 nM
